Exercise: for every item that follows, state its recorded apparent Kd (screen).
- Experimental Target: T1, TNFR1 (Homo sapiens, UniProt P19438)
- T1 chain: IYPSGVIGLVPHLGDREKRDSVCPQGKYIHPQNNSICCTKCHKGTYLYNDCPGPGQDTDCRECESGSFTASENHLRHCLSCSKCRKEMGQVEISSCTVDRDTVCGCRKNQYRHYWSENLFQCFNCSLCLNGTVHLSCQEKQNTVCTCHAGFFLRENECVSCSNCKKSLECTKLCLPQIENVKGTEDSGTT
- Method: yeast display SC50
Answer with a number only, understood to be in nM.

input: Supply apparent Kd (screen) value. Item: Q4R (designed binder) MTLRELLREEALRRAEAEAFRYALELLAEKFPEQKEYLLDLAEEIESQIRSLSGVDVEDVRKFLDKEWAWVKELLAEHPAELAEVEAARAARLAELRAEVEAKVAA
output: 0.49

input: Supply apparent Kd (screen) value. Item: E81I (designed binder) MTLQELLREEALRRAEAEAFRYALELLAEKFPEQKEYLLDLAEEIESQIRSLSGVDVEDVRKFLDKEWAWVKELLAEHPAILAEVEAARAARLAELRAEVEAKVAA
output: 0.49

input: Supply apparent Kd (screen) value. Item: E46M (designed binder) MTLQELLREEALRRAEAEAFRYALELLAEKFPEQKEYLLDLAEEIMSQIRSLSGVDVEDVRKFLDKEWAWVKELLAEHPAELAEVEAARAARLAELRAEVEAKVAA
output: 0.49

input: Supply apparent Kd (screen) value. Item: Y22Q (designed binder) MTLQELLREEALRRAEAEAFRQALELLAEKFPEQKEYLLDLAEEIESQIRSLSGVDVEDVRKFLDKEWAWVKELLAEHPAELAEVEAARAARLAELRAEVEAKVAA
output: 0.49

input: Supply apparent Kd (screen) value. Item: E5Q (designed binder) MTLQQLLREEALRRAEAEAFRYALELLAEKFPEQKEYLLDLAEEIESQIRSLSGVDVEDVRKFLDKEWAWVKELLAEHPAELAEVEAARAARLAELRAEVEAKVAA
output: 0.49
